Tested on: phosphorylated MEK1 (Homo sapiens, UniProt Q02750)
Sequence (Q02750 whole entry): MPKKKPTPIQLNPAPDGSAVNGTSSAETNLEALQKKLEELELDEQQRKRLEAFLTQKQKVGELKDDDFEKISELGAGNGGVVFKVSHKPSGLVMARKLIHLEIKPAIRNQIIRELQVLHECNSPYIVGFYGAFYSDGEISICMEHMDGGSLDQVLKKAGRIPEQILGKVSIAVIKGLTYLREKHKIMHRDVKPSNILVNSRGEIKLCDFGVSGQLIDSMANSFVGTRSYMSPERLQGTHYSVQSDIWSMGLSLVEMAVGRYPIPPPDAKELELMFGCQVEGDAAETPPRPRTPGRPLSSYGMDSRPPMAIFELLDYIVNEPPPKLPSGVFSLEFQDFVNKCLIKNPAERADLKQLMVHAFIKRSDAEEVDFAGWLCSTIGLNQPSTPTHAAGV
Assay comment: MEK1 binding assay (HTRF, tracer displacement)
Experimental setup: read-out: % binding (20 µM)
Quantity name: inhibition at 20 µM (%)

1. COc1ccc2cc(Cc3ccc(F)cc3)c(=O)oc2c1 [Compound 84]: 15.4
2. CCCC(=O)Oc1ccc2c(C)c(Cc3ccc(F)cc3)c(=O)oc2c1 [Compound 45]: 72.3
3. CCCc1c(Cc2ccccc2)c(=O)oc2cc(OC(C)=O)ccc12 [Compound 30]: 25.6
4. CCCc1c(Cc2ccc(F)cc2)c(=O)oc2cc(O)ccc12 [Compound 4h]: 20.4

====

Tested on: phosphorylated MEK1 (Homo sapiens, UniProt Q02750)
Assay comment: MEK1 binding assay (HTRF, tracer displacement)
Experimental setup: read-out: % binding (20 µM)
Procedure: The homogeneous time resolved fluorescence (HTRF) assay was performed on a Proxiplate-384 F plus solid back plate (Perkin Elmer, Waltham, MA. USA) with 5 nM GST tagged phosphorylated MEK1 (GST-MEK1), 2 nM europium-labeled anti-GST antibody (Eu-anti-GST), 20 nM kinase tracer 236 and test compound at a variety of concentrations. […] This energy transfer is detected by an increase in the fluorescence emission of the tracer at 665 nm and a decrease in the fluorescence emission of europium at 615 nm. […]
Quantity name: inhibition at 20 µM (%)

1) Cc1c(Cc2ccc(F)cc2)c(=O)oc2cc(OC(=O)C(C)(C)C)ccc12 [Compound 60]: 20.3
2) CCCC(=O)Oc1ccc2c(C)c(Cc3ccccc3)c(=O)oc2c1 [Compound 42]: 68.4
3) CC(=O)Oc1ccc2c(C)c(Cc3ccccc3)c(=O)oc2c1 [Compound 28]: 96.5
4) Cc1c(Cc2ccc(F)cc2)c(=O)oc2cc(OS(=O)(=O)c3ccccc3)ccc12 [Compound 74]: 17
5) Cc1c(Cc2ccc(F)cc2)c(=O)oc2cc(OC(=O)N(C)C)ccc12 [Compound 17]: 82.1
6) CCCCC(=O)Oc1ccc2c(CCC)c(Cc3ccc(F)cc3)c(=O)oc2c1 [Compound 54]: 23.9
